B1: CD207 (parent)
chain: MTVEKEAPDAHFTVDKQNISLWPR

variants of: B1; experiment: protein stability index of a GFP-peptide fusion (GPS, HEK-293T) (PSI 1-6); higher = more stable; details: c terminus: a fixed tail appended;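 also: lentivirally expressed fusions sorted by FACS into six bins by GFP to DsRed ratio, PSI derived from sequencing read proportions per bin multiplied by bin number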
property.measured: protein stability index
Keep the answer to the number alone.

Please review the entries below; each comes with its answer.
T13I
3.49
N18W
2.05
I19E
4.47
S20I
2.66
D15H
2.48
E6S
3.01

Query :: Find the recorded protein stability index belonging to "E6T" and report it.
Result :: 3.08

Query :: Tell me the measured protein stability index of "P23H" , please.
Result :: 2.9
